# System: DeltatarO mutant
# method: S. aureus survival, RN4220 and DeltatarO strains – OD600, teichoic acid synthesis inhibitors, primary screen (AID 463173)
# settings: S. aureus RN4220 wild type/DeltatarO growth, OD600, 18 h, active compounds read low, screened at 18.75 µg/mL (by protocol)
The campaign covered roughly 52,000 compounds. About 4,300 (8.3%) were called active. Shown is part of a subset that was picked to be rich in actives.
Examples of compounds with documented survival follow.
Give the quantity in %, number only.

Here's what some known entries look like.
For the compound `CCOc1ccc(-c2cn3c(n2)sc2cc(C(=O)NCCc4ccc(OC)cc4OC)ccc23)cc1` , what survival is on record?
40

For the compound `CCOc1ccc2c(c1)[C@@H]1C=CC[C@@H]1[C@H](c1ccccc1Cl)N2` , what survival is on record?
-10

For the compound `COc1ccc2[nH]c(=O)c(CN(Cc3cccs3)S(=O)(=O)c3cccc4nsnc34)cc2c1` , what survival is on record?
113

For the compound CCCN1CCN(CC2=C(C(=O)OCC)C(c3cccc(OC)c3OC)NC(=O)N2)CC1 (stereo not drawn) , what survival is on record?
94

Next:
For the compound `Cc1cc(C)cc(N2CCn3c2nc2c3c(=O)n(CCCc3ccccc3)c(=O)n2C)c1` , what survival is on record?
67

For the compound `COc1ccc(Br)cc1[C@@H]1Nc2ccc(C(=O)O)cc2[C@@H]2C=CC[C@@H]21` , what survival is on record?
36

For the compound `COc1cc(OC)c(NS(=O)(=O)c2c(C(=O)N3CCCCCC3)c(C)n(C)c2C)cc1Cl` , what survival is on record?
68

For the compound `CC(C)C(NS(=O)(=O)c1ccccc1)C(C)C` , what survival is on record?
97

For the compound CC(C)C(c1nnnn1C(C)(C)C)N(Cc1cc2cc3c(cc2[nH]c1=O)OCCO3)C1CCCCC1 (stereo not drawn) , what survival is on record?
109

For the compound `Cc1cc(C)n(-c2nc(C)c(C)c(=O)n2CC(=O)Nc2cccc([N+](=O)[O-])c2)n1` , what survival is on record?
52

For the compound CC1CCC2C(C1)Nc1c(C(=O)O)cccc1C2(C)C (stereo not drawn) , what survival is on record?
40

For the compound `CCOc1ccc(CNC(=O)c2ccc3c(c2)sc2nc(-c4ccccc4)cn23)cc1` , what survival is on record?
74

For the compound `CCOc1ccc(OCC)c(NS(=O)(=O)c2c(C(=O)N3CCCCCC3)c(C)n(C)c2C)c1` , what survival is on record?
76

For the compound CCCc1ccc(OCC(=O)Nc2sc3c(c2C(=O)OCC)CCC(C(C)(C)C)C3)cc1 (stereo not drawn) , what survival is on record?
125

For the compound `Cc1ccc(NS(=O)(=O)c2c(C(=O)N3CCC(C)CC3)c(C)n(C)c2C)cc1Cl` , what survival is on record?
126

For the compound `COc1ccccc1CNC(=O)c1ccc2c(c1)sc1nc(-c3ccc(F)cc3)cn12` , what survival is on record?
63

For the compound `COCCNC(=O)CSc1c2c(nc3cc(Cl)ccc13)CCCC2` , what survival is on record?
71

For the compound `O=C(CCn1c(=O)oc2ccccc21)n1c(=O)oc2ccccc21` , what survival is on record?
108
